- Tested on: CAKI-1
- protocol: GI50, drug alone; higher = less potent
- condition-label: treatment: drug alone; 5 days
The threshold is 0.4 µM. Values of GI50, drug alone beneath it are tagged true (1); values meeting or exceeding it are tagged false (0).

Solved cases (3 shown):
{"columns": ["compound", "assigned-category"],
 "data": [
  ["Nc1nccc(Oc2ccc(NC(=O)c3c[nH]cc(-c4ccc(F)cc4)c3=O)cc2F)c1Cl", "false (0)"],
  ["Cc1cc(Nc2cc(N3CCN(C)CC3)nc(Sc3ccc(NC(=O)C4CC4)cc3)n2)n[nH]1", "false (0)"],
  ["COC1=CC(c2cc3ccccc3[nH]2)=N/C1=C\\c1[nH]c(C)cc1C.CS(=O)(=O)O [Obatoclax mesylate (GX15-070)]", "true (1)"]
]}

QUERY: Would you kindly verify if GI50, drug alone of "COc1ccc(-c2cc3c(C)nc(N)nc3n([C@H]3CC[C@H](OCCO)CC3)c2=O)cn1" is strictly less than 0.4 µM?
RESULT: true (1)

QUERY: What about this compound? "C[C@H](NC(=O)/C(C#N)=C/c1cccc(Br)n1)c1ccccc1"
RESULT: false (0)

QUERY: Entry "C=CC(=O)Nc1cccc(Oc2nc(Nc3ccc(N4CCN(C)CC4)cc3OC)ncc2Cl)c1" please
RESULT: false (0)

QUERY: Moving on to "Cn1cc(-c2ccc3nnc(Sc4ccc5ncccc5c4)n3n2)cn1"
RESULT: false (0)

----------
Would you mind telling me the reported AUC of dose-response viability curve of each entry?
- System: 769-P
- protocol: AUC of dose-response viability curve, drug + dasatinib, normalised to DMSO (arbitrary (AUC of normalised viability)); higher = less growth inhibition
- condition-label: treatment: drug + dasatinib (fixed dose, not stated); 5 days
Answers are plain numbers.

{"columns": ["molecule", "measurement-target", "AUC of dose-response viability curve"],
 "data": [
  ["CC(O)C(=O)O.CC(O)C(=O)O.CN1CCN(c2ccc3nc(-c4c(N)c5c(F)cccc5[nH]c4=O)[nH]c3c2)CC1 [Dovitinib Dilactic acid (TKI258 Dilactic acid)] + Cc1nc(Nc2ncc(C(=O)Nc3c(C)cccc3Cl)s2)cc(N2CCN(CCO)CC2)n1", "769-P", 2.2]
]}

Each molecule below has a reported value. Please supply its AUC of dose-response viability curve.
1. NC(=O)Nc1sc(-c2ccc(F)cc2)cc1C(N)=O [TPCA-1] + Cc1nc(Nc2ncc(C(=O)Nc3c(C)cccc3Cl)s2)cc(N2CCN(CCO)CC2)n1
2. CNC(=O)Nc1ccc(-c2nc(N3CC4CCC(C3)O4)c3cnn(C4CCC5(CC4)OCCO5)c3n2)cc1 + Cc1nc(Nc2ncc(C(=O)Nc3c(C)cccc3Cl)s2)cc(N2CCN(CCO)CC2)n1
3. Nc1nc(N)c2nc(-c3cccc(O)c3)cnc2n1 + Cc1nc(Nc2ncc(C(=O)Nc3c(C)cccc3Cl)s2)cc(N2CCN(CCO)CC2)n1

RESULT:
1: 2.22; 2: 1.16; 3: 2.54

QUERY: Tell me the measured AUC of dose-response viability curve of COc1cc(Nc2c(C#N)cnc3cc(OCCCN4CCN(C)CC4)c(OC)cc23)c(Cl)cc1Cl [Bosutinib (SKI-606)] + Cc1nc(Nc2ncc(C(=O)Nc3c(C)cccc3Cl)s2)cc(N2CCN(CCO)CC2)n1 , please.
RESULT: 2.03

----------
- System: TK-10
- protocol: AUC of dose-response viability curve, drug alone (arbitrary (AUC of normalised viability)); higher = less growth inhibition
- condition-label: treatment: drug alone; 5 days
Rule: AUC of dose-response viability curve below 3 gives rule met. Equal to or above 3 gives rule not met.

Worked set:
{"columns": ["compound", "assigned-category"],
 "data": [
  ["COc1cc(CCc2cc(NC(=O)c3ccc(N4C[C@@H](C)N[C@@H](C)C4)cc3)n[nH]2)cc(OC)c1", "rule not met"],
  ["CC[C@@H]1C(=O)N(C)c2cnc(Nc3ccc(C(=O)N[C@H]4CC[C@H](N5CCN(CC6CC6)CC5)CC4)cc3OC)nc2N1C(C)C", "rule met"],
  ["Nc1cccc2c1CN(C1CCC(=O)NC1=O)C2=O (stereo not given) [Lenalidomide (Revlimid)]", "rule not met"]
]}

Next compound, please.
QUERY: I'd appreciate it if you could check whether "Clc1ccc(C2(c3ccc(-c4cn[nH]c4)cc3)CCNCC2)cc1" has AUC of dose-response viability curve smaller than 3.
RESULT: rule met

----------
- Tested on: UO-31
- protocol: GI50 of drug in presence of dasatinib; higher = less potent
- condition-label: treatment: drug + dasatinib (fixed dose, not stated); 5 days
property: GI50 of drug (nM)
One number for each entry, in nM.

{"columns": ["compound", "measurement-target", "GI50 of drug, nM"],
 "data": [
  ["CC1(COc2ccc3c(c2)ncn3-c2ccc3cccc(N4CCC(N)CC4)c3n2)COC1 + Cc1nc(Nc2ncc(C(=O)Nc3c(C)cccc3Cl)s2)cc(N2CCN(CCO)CC2)n1", "UO-31", 2230],
  ["COc1cc(Nc2ncc(F)c(Nc3ccc4c(n3)NC(=O)C(C)(C)O4)n2)cc(OC)c1OC [R406(free base)] + Cc1nc(Nc2ncc(C(=O)Nc3c(C)cccc3Cl)s2)cc(N2CCN(CCO)CC2)n1", "UO-31", 1610]
]}

# context switch: different compound, same GI50 of drug
QUERY: # input compound: CC(C)c1ccccc1Cc1cc(C(=O)Nc2ccc(S(=O)(=O)c3ccccc3C(C)(C)C)cc2)c(O)c(O)c1O [TW-37] + Cc1nc(Nc2ncc(C(=O)Nc3c(C)cccc3Cl)s2)cc(N2CCN(CCO)CC2)n1 ; wanted: its GI50 of drug
RESULT: 9770

----------
- System: 769-P
- protocol: GI50, drug alone; higher = less potent
- condition-label: treatment: drug alone; 5 days
Mark Condition met for GI50, drug alone under 3 µM, Condition not met if at or over.

Solved entries (count: 6):
{"columns": ["molecule", "assigned-category"],
 "data": [
  ["CCO.N#CC(=C(/N)Sc1ccccc1N)/C(C#N)=C(\\N)Sc1ccccc1N [U0126-EtOH]", "Condition not met"],
  ["COc1cc(Nc2ncc(F)c(Nc3ccc4c(n3)N(COP(=O)(O)O)C(=O)C(C)(C)O4)n2)cc(OC)c1OC [R788 (Fostamatinib)]", "Condition not met"],
  ["C#Cc1cccc(Nc2ncnc3cc(OCCOC)c(OCCO)cc23)c1", "Condition not met"],
  ["Nc1nc(NCCNc2ncc(-n3ccnc3)c(-c3ccc(Cl)cc3Cl)n2)ccc1[N+](=O)[O-]", "Condition met"],
  ["COc1cc2ncnc(Nc3ccc(F)c(Cl)c3)c2cc1OCCCN1CCOCC1 [Gefitinib (Iressa)]", "Condition not met"],
  ["O=C1NC(=O)/C(=C/c2ccc3c(c2)OC(F)(F)O3)S1", "Condition not met"]
]}

QUERY: Does CN(C)CC[C@H](CSc1ccccc1)Nc1ccc(S(=O)(=O)NC(=O)c2ccc(N3CCN(Cc4ccccc4-c4ccc(Cl)cc4)CC3)cc2)cc1[N+](=O)[O-] [ABT-737] have GI50, drug alone strictly under 3 µM?
RESULT: Condition not met

----------
- System: 786-O
- protocol: AUC of dose-response viability curve, drug alone (arbitrary (AUC of normalised viability)); higher = less growth inhibition
- condition-label: treatment: drug alone; 5 days
property: AUC of dose-response viability curve
Answers are plain numbers.

{"columns": ["compound", "measurement-target", "recorded-measurement"],
 "data": [
  ["CCCS(=O)(=O)Nc1ccc(F)c(C(=O)c2c[nH]c3ncc(Cl)cc23)c1F [PLX-4720]", "786-O", 2.5],
  ["CCOC(=O)C1=C(N)Oc2ccc(Br)cc2[C@H]1[C@H](C#N)C(=O)OCC [HA14-1]", "786-O", 3.27],
  ["O=C(O)[C@]1(Cc2cccc(Nc3nccs3)n2)CC[C@@H](Oc2cccc(Cl)c2F)CC1 [MK-5108 (VX-689)]", "786-O", 1.01],
  ["Br.Cc1ccc(C(=O)Cn2c3c(sc2=N)CCCC3)cc1 [Pifithrin-α]", "786-O", 1.95],
  ["COc1cc2nccc(Oc3ccc(NC(=O)NC4CC4)c(Cl)c3)c2cc1C(N)=O [E7080 (Lenvatinib)]", "786-O", 3.13]
]}

Below are some compounds; for each one, tell me its AUC of dose-response viability curve.
1. COc1cc2ncnc(Nc3ccc(F)c(Cl)c3)c2cc1NC(=O)/C=C/CN1CCCCC1
2. CN(C)Cc1cccc(N/C(=C2\C(=O)Nc3cc(C(=O)N(C)C)ccc32)c2ccccc2)c1
3. Nc1ccc(C(=O)Nc2cccc(-c3nc(N4CCOCC4)c4oc5ncccc5c4n3)c2)cn1
4. CN1CCN(C2CCN(C(=O)Nc3cc(Oc4ccc(NC(=O)C5(C(=O)Nc6ccc(F)cc6)CC5)c(F)c4)ccn3)CC2)CC1 [Golvatinib (E7050)]
5. CNC(=O)c1nn(C)c2c1C(C)(C)Cc1cnc(Nc3ccc(N4CCN(C)CC4)cc3)nc1-2
6. CCOc1ccn(-c2ccc(F)cc2)c(=O)c1C(=O)Nc1ccc(Oc2ccnc(N)c2Cl)c(F)c1

RESULT:
[1.39, 2.81, 2.4, 2.78, 2.22, 2.3]
